Data provenance is ChEMBL document CHEMBL1131216.

tested on: Streptococcus pneumoniae; experiment: In vitro antibacterial activity of 5979 strain of Gram positive bacteria Streptococcus pneumoniae; assay type: functional
VALUE KIND: MIC (µg/mL)
# output: bare number, implied unit µg/mL

# lookup: MIC of `CC[C@H]1OC(=O)/C(C)=C/[C@H](C)[C@@H](O[C@@H]2O[C@H](C)C[C@H](N(C)C)[C@H]2O)[C@@](C)(OC)C[C@@H](C)C(=O)[C@H](C)[C@H]2N(NCCCc3ccc(Cl)cc3)C(=O)O[C@]12C` 16

Reported MIC for CC[C@H]1OC(=O)C(C)C(=O)[C@H](C)[C@@H](O[C@@H]2O[C@H](C)C[C@H](N(C)C)[C@H]2O)[C@@](C)(OC)C[C@@H](C)C(=O)[C@H](C)[C@H]2N(NCCCc3ccnc4ccccc34)C(=O)O[C@]12C (some centres undefined) : what is it? 8
